Origin of values: the supplement of paper PMC6555819

test system: FXR:RXRa (NR concentration 270 nM, RXRa partner concentration 90 nM); assay: PBM binding z-score (relative to random genomic background probes); higher = stronger binding; sequences stand for … in GC…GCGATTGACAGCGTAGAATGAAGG
Note to self: class labels come from recorded PBM binding z-score, ranges listed here: lower range (below 0.8), middle range (0.8 to below 2), upper range (2 or more)

sequencetext=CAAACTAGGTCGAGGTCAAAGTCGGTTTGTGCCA classification="upper range"
sequencetext=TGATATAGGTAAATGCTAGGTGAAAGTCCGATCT classification="lower range"
sequencetext=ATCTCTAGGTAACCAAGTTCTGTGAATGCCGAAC classification="lower range"
sequencetext=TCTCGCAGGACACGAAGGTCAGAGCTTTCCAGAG classification="middle range"
sequencetext=GCTGCTAGGTCAGGTTGGTTAGCTAACGGGTACG classification="middle range"
sequencetext=TTACCACGGTGAAAGGTCGTTGATGCACGCCTTG classification="middle range"
sequencetext=CCAAGCAGGCCAATCTGGGTCACTCAAGGCTTGA classification="lower range"
sequencetext=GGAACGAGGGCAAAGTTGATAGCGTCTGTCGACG classification="middle range"
sequencetext=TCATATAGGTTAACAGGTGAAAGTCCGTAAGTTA classification="middle range"
sequencetext=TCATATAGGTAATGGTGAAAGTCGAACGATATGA classification="lower range"
sequencetext=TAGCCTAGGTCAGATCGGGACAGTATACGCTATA classification="upper range"
sequencetext=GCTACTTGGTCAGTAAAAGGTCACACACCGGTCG classification="upper range"
